# Tested on: HOP-62 NSCLC
# Assay Protocol: NCI-60 one-dose screen, 48 h (100 = growth as untreated, 0 = no growth, -100 = all killed)
# Condition: 10 µM unless noted
Compounds without any hit were thinned out: in the full panel of roughly 83,000, 20% have a hit.
Value Kind: growth (%)
Give the value, in units of %, as a plain number.

Worked examples, 5 molecules total:
For the record Nc1nc(CSc2n[nH]c(N)n2)nc(Nc2ccccc2)n1 , what value of growth is listed for HOP-62 NSCLC?
106

What is its growth for HOP-62 NSCLC? Entry: Nc1ncc(-c2ccc3ncnc(N4CCc5ccc(Cl)cc54)c3c2)cc1C(F)(F)F
17.3

// fetch HOP-62 NSCLC growth for Nc1ccc(S(=O)(=O)c2ccc(N)cc2)cc1
107

GET /values?readout=growth&system=HOP-62 NSCLC&item= BrC1=C(Br)C(Br)(Br)C(Br)=C1Br
101

What is its growth for HOP-62 NSCLC? Entry: CCN1C(=O)N(c2ccccc2)C2NC(=S)N(/N=C/C=C/c3ccccc3)C21 (stereo unspecified)
37.9

Moving on to another molecule below.
Please provide the recorded growth for O=C(CN1C(=O)S/C(=C\C(Cl)=C\c2ccccc2)C1=O)NCCCn1ccnc1 , tested on HOP-62 NSCLC.
84.9

----------
# Tested on: EKVX NSCLC
# Assay Protocol: NCI-60 one-dose screen, 48 h (100 = growth as untreated, 0 = no growth, -100 = all killed)
# Condition: 10 µM
This is part of a sample that, as a whole, favours compounds with a hit. Of some 83,000 tested, about 20% had one in any assay.
Value Kind: growth (%)
Could you give me the number in %? Just the number is fine.

Recorded results for 3 compounds are shown here.
growth of CC(=O)/C=C/c1ccc(N(C)Cc2ccc(C(C)(C)C)cc2)cc1 on EKVX NSCLC?
106

API: value(readout=growth, system=EKVX NSCLC) for record O=C(/C=C/c1cccc(Oc2ccc(Cl)cc2)c1)c1ccccc1
110

Checklist item: growth tested on EKVX NSCLC, entry CCN(Cc1ccccc1)c1ccc(/C=C2\COc3ccccc3C2=O)cc1 , value?
102

Read the next record carefully.
Given the entry CC(=O)/C=C/c1ccc(OCc2ccc(Cl)cc2)cc1 , what growth was observed with EKVX NSCLC?
116

----------
# Test system: MALME-3M melanoma
# Assay Protocol: NCI-60 one-dose screen, 48 h
# Condition: 10 µM unless noted
About 83,000 compounds went through this panel and 20% of them were active in at least one assay; those are over-represented in the sample as a whole. Calls of active or inactive are those of the source. Rule for the calls: active = growth percent below 10; inactive = the rest.
Entry note: the call must match one of YES = active, NO = inactive

// known answers, use as guide
Which result was noted for this molecule in the test: CCNC(=S)n1nc(SC)c(C(=O)OCC)c1N
NO

Test call for this molecule, please: CCCCCCCCCCCCCCCCCCOc1cccc(CC(=O)OCC[N+](CC)(CC)CC)c1
NO

Others:
I would be grateful if you could indicate the recorded call for CC[C@]12CN3CCc4c([nH]c5ccccc45)[C@@](C(=O)OC)(c4cc5c(cc4OC)N(C)[C@H]4[C@@](O)(C(=O)OC)[C@H](OC(C)=O)[C@]6(CC)C=CCN7CC[C@]54[C@@H]76)CC(C3)[C@H]1O2 (stereo partly drawn) .
NO

Can you look up the reported call for O=C(N=Nc1c(O)[nH]c2ccccc12)Nc1ccc(Br)cc1 for me?
NO

Query: recorded result category for C=C(C)[C@@H]1CC[C@]2(C)[C@H](CC(=O)N[C@H]3[C@@H]4C[C@](C)(C(=O)OC)CC[C@]4(C)CC[C@]32C)[C@@]1(C)CCC#N in this test
NO

Hi team, can someone confirm the assay call for C[C@]12CCc3c(ccc4cc(O)ccc34)[C@@H]1C[C@H](O)[C@@H]2O ?
NO

Give the logged outcome of this assay for the following molecule: COc1cc(C=O)ccc1Oc1ccc([N+](=O)[O-])cc1[N+](=O)[O-]
NO

In this assay, the call recorded for CCNC(=O)Oc1ccc(/C(=C(/C)Cc2ccc(OC)cc2)c2ccc(OCCN(CC)CC)cc2)cc1 was what?
YES

These measurements were taken from PubChem BioAssay (NCI).
